biological target: recombinant human S1P1 receptor (Homo sapiens); assay: GTPγS assay to determine EC50 values; conditions: 35S-GTPγS binding, membrane preparations of CHO cells expressing recombinant human S1P1 receptor
Sequence (P21453 whole entry): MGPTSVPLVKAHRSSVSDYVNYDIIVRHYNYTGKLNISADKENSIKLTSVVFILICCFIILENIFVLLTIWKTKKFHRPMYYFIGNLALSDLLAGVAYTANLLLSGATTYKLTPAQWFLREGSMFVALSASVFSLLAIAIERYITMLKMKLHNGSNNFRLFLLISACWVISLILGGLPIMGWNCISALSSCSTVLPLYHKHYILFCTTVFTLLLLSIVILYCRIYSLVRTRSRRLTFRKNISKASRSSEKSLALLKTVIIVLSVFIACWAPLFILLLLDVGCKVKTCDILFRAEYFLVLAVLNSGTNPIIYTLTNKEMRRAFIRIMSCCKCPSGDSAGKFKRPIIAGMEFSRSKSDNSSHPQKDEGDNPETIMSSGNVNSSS
pEC50: −log10 of the molar value.
ATTRIBUTE MEASURED: pEC50

These solved cases illustrate the format of a correct answer.
Cc1cc(-c2nc(-c3sc(C)c4c3C[C@@H]3[C@H]4C3(C)C)no2)cc(C)c1OCC(CO)CO :: 8.85
Cc1cc(-c2nc(-c3sc(C)c4c3C[C@@H]3[C@H]4C3(C)C)no2)cc(C)c1O :: 8.80
Cc1cc(-c2noc(-c3sc(C)c4c3C[C@@H]3[C@H]4C3(C)C)n2)cc(C)c1OCCCNCCO :: 8.21
Cc1sc(-c2nc(-c3ccc(OC[C@H](O)CO)cc3)no2)c2c1[C@H]1[C@@H](C2)C1(C)C :: 7.92
Cc1cc(-c2noc(-c3sc(C)c4c3C[C@@H]3[C@H]4C3(C)C)n2)cc(C)c1OCC(CO)CO :: 8.92

I: Cc1cc(-c2nc(-c3sc(C)c4c3C[C@@H]3[C@H]4C3(C)C)no2)cc(C)c1OCCO
II: Cc1cc(-c2noc(-c3sc(C)c4c3C[C@@H]3[C@H]4C3(C)C)n2)cc(C)c1OCCCN1CCCC1C(=O)O (some centres unmarked)
III: Cc1cc(-c2noc(-c3sc(C)c4c3C[C@@H]3[C@H]4C3(C)C)n2)cc(C)c1OCCCN
Order these by pEC50, descending, and give the full ranking. Respond with the label ranking, as requested.
I, III, II
